B1: Hairpin Ribozyme (parent)
chain: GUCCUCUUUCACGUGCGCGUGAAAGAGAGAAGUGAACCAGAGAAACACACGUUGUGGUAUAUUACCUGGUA

# Variants of: B1
# protocol.text: self-cleavage, relative activity (ratio to wild type); higher = more cleavage; co-transcriptional
Let's look at some variants and their measured self-cleavage.
Answer as a number with no unit attached.

Worked cases, self-cleavage given:
GUCCUCUUUCACGUGCGCGUGAAAGAGAGAAGUGAACCAGAGAAACACACGUUGUGUUAUUUUACCUGGUA; 0.203
GUCCUCUUUCACGUGAGCGUGAACGAGAGAAGUGAACCAGAGAAACACACGUUGUGGUAUAUUACCUGGUA; 0.71
GUCCUUUCUCACGUGCGCGUGAAAGAGAGAAGUGAACCAGAGAAACACACGUUGUGGUAUAUUACCUGGUA; 0.686

query: Which self-cleavage is listed for GUCCUCUUUCACAUGCGCGUGAAAGAGAGAAGUGAACCAGAGAAACACACGUUGUGGUAUAUAACCUGGUA ?
result: 0.194

query: Which self-cleavage is listed for GUCCUCAUUCACGUGCGCGUGAAAGAGAGAAGUGAACCAGAGAAACAUACGUUGUGGUAUAUUACCUGGUA ?
result: 0.0656

query: Which self-cleavage is listed for GUCCUCUUUCACGUGCGCGUGAAAGAGAGCAGUGAACCAGAGCAACACACGUUGUGGUAUAUUACCUGGUA ?
result: 0.261

query: Which self-cleavage is listed for GUCCUCUUUCACGUGCGCGUGAAAGAGAGAAGUGAACCAGAGGAACACACGUUGUGGUAUAUUACCUGGGA ?
result: 0.288

query: Which self-cleavage is listed for GUCCUCUUUCACGUGCGCGUGAAAGAGAGAAGUGAACCAGAGAAACACACGUUGUGGUAUAUUACCUAGAA ?
result: 0.156

query: Which self-cleavage is listed for GUCCUCUUUCACGUGCGCGUGAAAGAGAGAAGAUAACCAGAGAAACACACGUUGUGGUAUAUUACCUGGUA ?
result: 0.134

query: Which self-cleavage is listed for GUCCUCUUUCACGUGCCCGUGAAAGAGAGAAGUGAACCAGAGAAACACACGUUGUGGUAUAUUUCCUGGUA ?
result: 0.176

query: Which self-cleavage is listed for GUCCUCUGUCACGUGCGCGUGAAAGAGAGAAGUGAACCAGAGAAACACACGUUGAGGUAUAUUACCUGGUA ?
result: 0.193

query: Which self-cleavage is listed for GUCCUCUUUCACGUGCGCGUCAAAGAGAGAAGUGAGCCAGAGAAACACACGUUGUGGUAUAUUACCUGGUA ?
result: 0.779

query: Which self-cleavage is listed for GUCCUCUUUCACGUGCGCGUGAAAGAGUGAAGUGAACGAGAGAAACACACGUUGUGGUAUAUUACCUGGUA ?
result: 0.0619

query: Which self-cleavage is listed for GUCCUCUUUCACGUGCGCGUGAAAGAGAGAAGUGAACAAGAGAAACACACGUUGUGGUCUAUUACCUGGUA ?
result: 0.103

query: Which self-cleavage is listed for GUCCUCUUUCACGUGCGCGUGAAAGAGAGACGAGAACCAGAGAAACACACGUUGUGGUAUAUUACCUGGUA ?
result: 0.241

query: Which self-cleavage is listed for GUCCUCUUUCACGUGCGCGUGACAGAGAGAAGUGAACCAGAGAAACGCACGUUGUGGUAUAUUACCUGGUA ?
result: 0.132

query: Which self-cleavage is listed for GUCCUCUUUCACGUGCGCGUGAAAGAGAGAAGUGGACCAGAGAAACACACGUUGUGGUAUAUUACCAGGUA ?
result: 0.201

query: Which self-cleavage is listed for GUCCUCUUUCACGUGCGCGUGAAAGAGAGAUGUGAACCAGAGAAACACACGGUGUGGUAUAUUACCUGGUA ?
result: 0.117

The measured values listed here are drawn from the RNAGym collection of RNA variant scans (doi:10.7554/elife.80360).
